- Study System: T1, human IL-17RA on the cell surface (human (endogenous in THP-1 and HaCaT), UniProt Q96F46 33-866)
- T1 construct: human IL-17 receptor A, endogenous on the surface of human cell lines; Expression on THP-1 was confirmed with an anti-IL-17RA antibody; also called cell-surface IL-17RA; IL-17RA-expressing THP-1 cells; source: endogenous, on THP-1 cells; endogenous, on HaCaT cells
- Protocol Description: LigandTracer Green Line (real-time binding to cells); adherent HaCaT cells on a dish; biotinylated His6-ARS-TolA-AVI added stepwise (3, 30, 90 nM by the results), then dissociation in fresh medium or PBS (ARS043); one-to-one model, TraceDrawer
- Setup Conditions: one partner purified
Ends that are not written are not given here. TolA = 305-residue helical TolA spacer protein; AVI = AviTag
Response field label takes met when Kd is strictly below 30 nM and not met in all other cases.

Binder	Label
His6-LAEAKVLANRELDKYGVSDVYKLINYACPVTWVKWVIDPILAMLP-{TolA-AVI} (designed binder, also: biotin on the AviTag (in vivo biotinylated), ABD-derived variant selected by ribosome display; position 23 is deleted; source: E. coli BL21 (DE3) BirA, purified (Ni-NTA); not shown: His6, N-terminal, kept; TolA spacer protein (305 residues), C-terminal, kept) [His6-ARS004-TolA-AVI]	met
His6-LAEAKVLANRELDKYGVSDLYKNMINMALWVTGVKWLIDPILATLP (designed binder, not fully specified (C-terminus); also: His6-TolA-AviTag fusion, not in given chain, biotin on the AviTag (in vivo biotinylated), ABD-derived variant selected by ribosome display; source: E. coli BL21 (DE3) BirA, purified (Ni-NTA); not shown: His6, N-terminal, kept; TolA spacer protein (305 residues), C-terminal, kept) [His6-ARS043-TolA-AVI]	not met
His6-LAEAKVLANRELDKYGVSDMYKNVINIAWWVSIVKYPIDCILALLP (designed binder, not fully specified (C-terminus); also: His6-TolA-AviTag fusion, not in given chain, biotin on the AviTag (in vivo biotinylated), ABD-derived variant selected by ribosome display; source: E. coli BL21 (DE3) BirA, purified (Ni-NTA); not shown: His6, N-terminal, kept; TolA spacer protein (305 residues), C-terminal, kept) [His6-ARS019-TolA-AVI]	met
His6-LAEAKVLANRELDKYGVSDVYKLINMALYVTGVKPWIDVILAVLP-{TolA-AVI} (designed binder, also: biotin on the AviTag (in vivo biotinylated), ABD-derived variant selected by ribosome display; position 23 is deleted; source: E. coli BL21 (DE3) BirA, purified (Ni-NTA); not shown: His6, N-terminal, kept; TolA spacer protein (305 residues), C-terminal, kept) [His6-ARS012-TolA-AVI]	not met
His6-LAEAKVLANRELDKYGVSDVYKNLINYAWLVMWVPIDAILALLP-{TolA-AVI} (designed binder, also: biotin on the AviTag (in vivo biotinylated), ABD-derived variant selected by ribosome display; positions 35-36 are deleted; source: E. coli BL21 (DE3) BirA, purified (Ni-NTA); not shown: His6, N-terminal, kept; TolA spacer protein (305 residues), C-terminal, kept) [His6-ARS014-TolA-AVI]	met
